- test-summary: solvent given as SMILES
- measurement-conditions: in CO

[
  {
    "compound": "CC(C)(C)c1cc2ccc3cccc4c3c2c(c1)c1nc2c3cc(C(C)(C)C)cc5ccc6cccc(c(=O)n2c41)c6c53",
    "absorption maximum [nm]": 382
  },
  {
    "compound": "C#CCOc1ccc(/C=C/C2=[N+]3C(=C(c4ccc(N(CC)CC)cc4)c4c(C)cc(C)n4[B-]3(F)F)C(C)=C2)cc1",
    "absorption maximum [nm]": 568
  },
  {
    "compound": "COc1ccc(/C=C(\\C)c2nc3ccccc3o2)cc1",
    "absorption maximum [nm]": 325
  },
  {
    "compound": "CCCCCCc1ccsc1-c1ccc(-c2sc(C(=O)O)cc2CCCCCC)s1",
    "absorption maximum [nm]": 352
  },
  {
    "compound": "COc1cc(N(c2ccccc2)c2ccccc2)ccc1C=C(C#N)C#N",
    "absorption maximum [nm]": 442
  },
  {
    "compound": "CCN(CC)c1ccc2cc(-c3cn4ccccc4n3)c(=O)oc2c1",
    "absorption maximum [nm]": 423
  },
  {
    "compound": "CN(C)c1ccc(/C=C2\\CC/C(=C\\c3ccc(C#N)cc3)C2=O)cc1",
    "absorption maximum [nm]": 473
  },
  {
    "compound": "CN(C)c1ccc(/C=C/C(=C(C#N)C#N)c2ccc3c4c(cccc24)CC3)cc1",
    "absorption maximum [nm]": 496
  },
  {
    "compound": "COC(=O)C(NC(=O)OC(C)(C)C)c1ccc2oc(-c3ccc(C#N)cc3)nc2c1 (centres undefined)",
    "absorption maximum [nm]": 317
  },
  {
    "compound": "CCc1c(C)c2n(c1C)[B-](F)(F)[N+]1=C(NCc3ccc(OC)cc3)C=CC1=C2C",
    "absorption maximum [nm]": 525
  },
  {
    "compound": "N#Cc1ccc(N/N=C/c2cc(Cl)ccc2O)cc1",
    "absorption maximum [nm]": 354
  },
  {
    "compound": "COc1c2ccccc2c(OC)c2c1c1ccc(F)cc1n2C",
    "absorption maximum [nm]": 396
  },
  {
    "compound": "CN(C)c1ccc(/C=C/C=C2\\CC/C(=C\\c3ccc(N(C)C)cc3)C2=O)cc1",
    "absorption maximum [nm]": 500
  },
  {
    "compound": "O=C(O)CCCCCn1/c(=C/C=C/C2=[N+](CCCCCC(=O)O)c3cccc4cccc2c34)c2cccc3cccc1c32",
    "absorption maximum [nm]": 760
  },
  {
    "compound": "CC1=C(C(C)(C)C)C(C)=[N+]2C1=C(C)c1c(C)c(C(C)(C)C)c(C)n1[B-]2(F)F",
    "absorption maximum [nm]": 522.9
  },
  {
    "compound": "N#Cc1ccc2c(c1)CCc1nc(-c3ccc([N+](=O)[O-])cc3)c3c(c1-2)CCc1cc(C#N)ccc1-3",
    "absorption maximum [nm]": 333
  },
  {
    "compound": "Cc1ccc(C2=C3C=CC(C#Cc4ccccc4)=[N+]3[B-](F)(F)n3c(Cl)ccc32)cc1",
    "absorption maximum [nm]": 556
  },
  {
    "compound": "COc1c2ccccc2c(OC)c2c1c1ccc(C)cc1n2C",
    "absorption maximum [nm]": 401
  },
  {
    "compound": "COc1ccc(NC(=O)C(C(=O)Nc2ccc(OC)cc2)C(c2ccccc2O)c2c(C)[nH]c3ccccc23)cc1 (centres undefined)",
    "absorption maximum [nm]": 258
  }
]
